reported-metric: melting point

1) CCSC(=S)N1Cc2[nH]c3ccccc3c2CC1CO (stereo not given)
74 to 76 °C
2) CCCCN1C(=O)NC(Cc2ccc(C(=O)OC)cc2)C1=O (stereo not given)
144 °C
3) COc1ccc(-c2ccc(C(=O)O)c(OC)c2)cc1OC
134 to 135 °C
4) Cn1cc(C2=C(c3cn(-c4ccccc4)c4ccccc34)C(=O)NC2=O)c2ccccc21
135 to 137 °C
5) COc1cc2c(cc1OC)CN(CCCOc1ccc(NC(=O)c3cccc4c(=O)c5cccc(OC)c5[nH]c34)cc1)CC2
190 °C
6) OC(c1ccccc1)C1CCN(CCc2ccccc2)CC1 (stereo not given)
125 to 128 °C
7) CNC(=O)C(C)Oc1ncn(-c2ccc(C(F)(F)F)cc2)n1 (stereo not given)
157 to 158 °C
8) O=c1[nH]c2cccc(O)c2n1CCN1CCN(c2cccc(C(F)(F)F)c2)CC1
246 °C
9) CS(=O)(=O)c1cnc(NC(=O)c2cccc(O)c2)s1
271 to 272 °C
10) CCCn1cnc(NC)c1C(=O)NCCCCCCOc1ccc(Cl)cc1
66 to 67 °C

The values you see were collected from a melting point compilation (Tetko et al.; mined from patent text by program, amines drawn as free bases though some values may be those of a salt).
